Tested on: pCHK1 (S345) in Colo320 DM cells
ASSAY_COMMENT: Alphalisa assay, detection of pCHK1 (S345) in Colo320 DM cells
Format: cell-based, human
CONDITION_LABEL: Homo sapiens, COLO 320DM, compound overnight (approximately 16 hours)
PARAMETER: IC50

Here is how some molecules turned out for IC50.
Cc1ccc(F)c([C@@H](C)[C@@H](c2n[nH]c(=O)o2)N2CCOc3cc(Cl)ncc3S2(=O)=O)c1C [Example 17]	> 50000 nM
Cc1ccc(F)c([C@@H](C)[C@@H](c2n[nH]c(=O)o2)N2COc3cc(Cl)cc(C(=O)N(C)C)c3S2(=O)=O)c1C [Example 41]	> 50000 nM
Cc1ccc(F)c([C@@H](C)[C@@H](c2n[nH]c(=O)o2)N2CN([C@H]3CCN(C)C3)c3cc(Cl)ccc3S2(=O)=O)c1C [Example 86]	1000 to 5000 nM
Cc1ccc(F)c([C@@H](C)[C@@H](c2n[nH]c(=O)o2)N2CCOc3c(ccc(Cl)c3C)S2(=O)=O)c1C [Example 36]	1000 to 5000 nM

Problem: What value of IC50 has been reported for the following molecule? Cc1ccc(F)c([C@@H](C)[C@@H](c2n[nH]c(=O)o2)N2CCNc3cc(Cl)ccc3S2(=O)=O)c1C [Example 21]
Result: 1000 to 5000 nM

Problem: Likewise for Cc1ccc(F)c([C@@H](C)[C@@H](c2n[nH]c(=O)o2)N2CN(C3CC3)c3cc(Cl)ccc3S2(=O)=O)c1C [Example 6] ?
Result: ≤ 1000 nM

Problem: Now give it for Cc1ccc(F)c([C@@H](C)[C@@H](c2n[nH]c(=O)o2)N2CN(O)c3cc(Cl)ccc3S2(=O)=O)c1C [Example 120] too.
Result: 1000 to 5000 nM

Problem: Here is the next molecule: Cc1ccc(F)c([C@@H](C)[C@@H](c2n[nH]c(=O)o2)N2CN([C@@H]3CCN(CC(F)(F)F)C3)c3cc(Cl)ccc3S2(=O)=O)c1C [Example 99]
Result: ≤ 1000 nM
